- Measured on: UniProt:P00533
- Assay procedure: Biochemical EGFR kinase inhibition assay (Lance Ultra TR-FRET), wildtype
- Cond: IC50 WT (nM), 100 μM ATP
Examples of compounds with documented IC50 follow.
Give just the numeric value; nM need not be written.

Q. Reported IC50 for CN(C)CCn1cc(C#Cc2cnc(Nc3ccnc(-c4cnn(S(=O)(=O)C5CC5)c4)n3)cc2N2CCCC(CO)C2)cn1 (centres unmarked) : what is it?
A. 2690

Q. Data request, read-out IC50, for O=C(N1CCC(C#Cc2cnc(Nc3ccnc(-c4cnn(S(=O)(=O)C5CC5)c4)n3)cc2NC2CCC(O)CC2)C1)C(F)(F)F (centres unmarked)
A. 5190

====

- Measured on: EGFR L858R/T790M/C797S (Homo sapiens, UniProt P00533, C797S/L858R/T790M)
- Sequence (P00533 25-1210 T790M/C797S/L858R): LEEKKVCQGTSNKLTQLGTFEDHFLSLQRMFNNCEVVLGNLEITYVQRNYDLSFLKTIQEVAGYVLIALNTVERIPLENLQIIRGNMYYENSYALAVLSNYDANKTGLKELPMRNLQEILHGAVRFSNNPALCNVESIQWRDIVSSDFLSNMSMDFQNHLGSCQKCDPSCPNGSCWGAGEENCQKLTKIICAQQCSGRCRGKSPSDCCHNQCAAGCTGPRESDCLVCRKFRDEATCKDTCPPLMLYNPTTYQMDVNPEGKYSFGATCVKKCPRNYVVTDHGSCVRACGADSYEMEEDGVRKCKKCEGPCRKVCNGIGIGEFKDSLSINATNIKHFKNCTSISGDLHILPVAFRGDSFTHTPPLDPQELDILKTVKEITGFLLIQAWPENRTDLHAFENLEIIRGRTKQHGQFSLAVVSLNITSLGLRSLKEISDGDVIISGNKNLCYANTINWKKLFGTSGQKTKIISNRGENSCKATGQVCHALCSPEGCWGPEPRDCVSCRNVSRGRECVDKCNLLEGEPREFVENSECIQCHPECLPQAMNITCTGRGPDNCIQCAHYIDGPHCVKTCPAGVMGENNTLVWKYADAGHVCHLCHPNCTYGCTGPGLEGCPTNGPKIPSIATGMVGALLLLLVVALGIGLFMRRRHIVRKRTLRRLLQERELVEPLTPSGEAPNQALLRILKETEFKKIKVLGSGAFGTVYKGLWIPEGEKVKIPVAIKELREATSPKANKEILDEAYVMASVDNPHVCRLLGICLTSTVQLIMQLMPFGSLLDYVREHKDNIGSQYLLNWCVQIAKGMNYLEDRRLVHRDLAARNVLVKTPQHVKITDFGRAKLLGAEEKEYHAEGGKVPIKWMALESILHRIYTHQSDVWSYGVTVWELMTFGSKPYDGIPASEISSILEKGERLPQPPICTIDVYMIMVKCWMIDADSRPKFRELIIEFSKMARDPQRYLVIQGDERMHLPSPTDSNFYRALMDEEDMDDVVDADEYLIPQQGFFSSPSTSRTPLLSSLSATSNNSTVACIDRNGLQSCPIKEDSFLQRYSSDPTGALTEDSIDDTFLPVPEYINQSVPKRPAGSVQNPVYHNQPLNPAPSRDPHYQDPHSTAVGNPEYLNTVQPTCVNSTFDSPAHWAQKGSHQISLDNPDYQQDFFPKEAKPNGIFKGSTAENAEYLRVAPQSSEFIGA
- Assay procedure: Biochemical EGFR kinase inhibition assay (Lance Ultra TR-FRET), triple mutant L858R/T790M/C797S
- Cond: Km ATP; read-out: IC50 L858R/T790M/C797S (nM), Km ATP
Below: a set of entries, each annotated with reported IC50.

Below are worked cases with known answers.
>  <Molecule>
O=S(=O)(C1CC1)n1cc(-c2nccc(Nc3cc(N[C@H]4CC[C@@H](O)CC4)c(C#CC4COC4)cn3)n2)cn1 [Example 353]

>  <IC50>
0.1 nM

$$$$
>  <Molecule>
CS(=O)(=O)N1CCC(C#Cc2cnc(Nc3ccnc(-c4cnn(S(=O)(=O)C5CC5)c4)n3)cc2NC[C@H]2CC[C@H](CO)CC2)CC1 [Example 388]

>  <IC50>
2 nM

$$$$
>  <Molecule>
COC1(O)CCN(c2cc(Nc3ccnc(-c4cnn(S(=O)(=O)C5CC5)c4)n3)ncc2C#CC2CCN(C)C2)CC1 (stereo not drawn) [Example 371]

>  <IC50>
0.1 nM

$$$$

Q. Can you share its IC50? I mean this molecule: CC1(O)CCN(c2cc(Nc3ccnc(-c4cnn(S(=O)(=O)C5CC5)c4)n3)ncc2C#CC2CCO[C@H]2C(F)(F)F)CC1 (stereo partly drawn) [Example 417]
A. 0.8 nM

Q. For the molecule shown here, O=S(=O)(C1CC1)n1cc(-c2nccc(Nc3cc(N4C[C@H]5C[C@@]5(CO)C4)c(C#Cc4cnn(C(F)(F)F)c4)cn3)n2)cn1 [Example 333] , give the reported IC50.
A. 3.5 nM

Q. So what's the measured IC50 for this one? O=S(=O)(C1CC1)n1cc(-c2nccc(Nc3cc(NC4CCC(CO)CC4)c(C#CC4CCOC4C(F)(F)F)cn3)n2)cn1 (stereo not drawn) [Example 416]
A. 0.9 nM

====

- Measured on: EGFR L858R/T790M/C797S (Homo sapiens, UniProt P00533, C797S/L858R/T790M)
- Assay procedure: Biochemical EGFR kinase inhibition assay (Lance Ultra TR-FRET), triple mutant L858R/T790M/C797S
- Cond: Km ATP; read-out: IC50 L858R/T790M/C797S (nM) Km ATP
Note to self: IC50 under 0.3 nM means y, ties and anything higher get n.

Worked cases, answers included:
>  <Compound>
CCC(C)Nc1cc(Nc2ccnc(-c3cnn(S(=O)(=O)C4CC4)c3)n2)ncc1C#Cc1cnn(C(C)C)c1 (centres unmarked)

>  <Class>
n

$$$$
>  <Compound>
CNC1CCN(c2cc(Nc3ccnc(-c4cnn(S(=O)(=O)C5CC5)c4)n3)ncc2C#Cc2ccn(C)n2)CC1

>  <Class>
n

$$$$
>  <Compound>
CN(C)Cc1ccc(CNc2cc(Nc3ccnc(-c4cnn(S(=O)(=O)C5CC5)c4)n3)ncc2C#Cc2cnn(CC(F)F)c2)cc1

>  <Class>
n

$$$$
>  <Compound>
CN(C)CCn1cc(C#Cc2cnc(Nc3ccnc(-c4cnn(S(=O)(=O)C5CC5)c4)n3)cc2N2CCCC(CO)C2)cn1 (centres unmarked)

>  <Class>
y

$$$$
>  <Compound>
CC1(CO)CCN(c2cc(Nc3ccnc(-c4cnn(S(=O)(=O)C5CC5)c4)n3)ncc2C#Cc2cnn3c2CNCC3)CC1

>  <Class>
y

$$$$

Q. For `Cn1cc(C#Cc2cnc(Nc3ccnc(-c4cnn(S(=O)(=O)C5CC5)c4)n3)cc2N[C@H]2CC[C@@](C)(O)CC2)cn1` , is the recorded IC50 below the cut-off of 0.3 nM?
A. y

Q. Determine whether this compound shows IC50 lower than 0.3 nM (ties excluded): `C[C@]1(O)CC[C@@H](Nc2cc(Nc3ccnc(-c4cnn(S(=O)(=O)C5CC5)c4)n3)ncc2C#Cc2cnn(C(F)(F)F)c2)CC1`
A. n

Q. Report whether reported IC50 is lower than 0.3 nM (strictly) for CC(O)C1CCN(c2cc(Nc3ccnc(-c4cnn(S(=O)(=O)C5CC5)c4)n3)ncc2C#Cc2cnn(C)c2)CC1 (centres unmarked)
A. n

Q. Consider `CC(C)Nc1cc(Nc2ccnc(-c3cnn(S(=O)(=O)C4CC4)c3)n2)ncc1C#Cc1cccnc1` . Does its IC50 lie strictly below 0.3 nM?
A. n

Q. Below 0.3 nM on IC50? Entry `Cn1cc(C#Cc2cnc(Nc3ccnc(-c4cnn(S(=O)(=O)C5CC5)c4)n3)cc2N[C@H]2CCC[C@H](O)C2)cn1`
A. y

Q. Please determine if `Cn1ccc(C#Cc2cnc(Nc3ccnc(-c4cnn(S(=O)(=O)C5CC5)c4)n3)cc2N2CCC(NCCF)CC2)n1` is below 0.3 nM in terms of IC50.
A. n

Q. In plain terms, does `CN1CC(n2cc(C#Cc3cnc(Nc4ccnc(-c5cnn(S(=O)(=O)C6CC6)c5)n4)cc3N3CCC(C)(CO)CC3)cn2)C1` come in under 0.3 nM for IC50?
A. y

Q. Hello, is IC50 of the following compound strictly smaller than 0.3 nM? `CC(=O)N1CCC(n2cc(C#Cc3cnc(Nc4ccnc(-c5cnn(S(=O)(=O)C6CC6)c5)n4)cc3N3CCC(NCCN(C)C)CC3)cn2)CC1`
A. y

====

log10(IC50) values by entry
- Measured on: EGFR Del19/T790M/C797S (Homo sapiens, UniProt P00533, C797S/DEL746-750/T790M)
- Sequence (P00533 with tags, fused parts or gaps DEL746-750/T790M/C797S): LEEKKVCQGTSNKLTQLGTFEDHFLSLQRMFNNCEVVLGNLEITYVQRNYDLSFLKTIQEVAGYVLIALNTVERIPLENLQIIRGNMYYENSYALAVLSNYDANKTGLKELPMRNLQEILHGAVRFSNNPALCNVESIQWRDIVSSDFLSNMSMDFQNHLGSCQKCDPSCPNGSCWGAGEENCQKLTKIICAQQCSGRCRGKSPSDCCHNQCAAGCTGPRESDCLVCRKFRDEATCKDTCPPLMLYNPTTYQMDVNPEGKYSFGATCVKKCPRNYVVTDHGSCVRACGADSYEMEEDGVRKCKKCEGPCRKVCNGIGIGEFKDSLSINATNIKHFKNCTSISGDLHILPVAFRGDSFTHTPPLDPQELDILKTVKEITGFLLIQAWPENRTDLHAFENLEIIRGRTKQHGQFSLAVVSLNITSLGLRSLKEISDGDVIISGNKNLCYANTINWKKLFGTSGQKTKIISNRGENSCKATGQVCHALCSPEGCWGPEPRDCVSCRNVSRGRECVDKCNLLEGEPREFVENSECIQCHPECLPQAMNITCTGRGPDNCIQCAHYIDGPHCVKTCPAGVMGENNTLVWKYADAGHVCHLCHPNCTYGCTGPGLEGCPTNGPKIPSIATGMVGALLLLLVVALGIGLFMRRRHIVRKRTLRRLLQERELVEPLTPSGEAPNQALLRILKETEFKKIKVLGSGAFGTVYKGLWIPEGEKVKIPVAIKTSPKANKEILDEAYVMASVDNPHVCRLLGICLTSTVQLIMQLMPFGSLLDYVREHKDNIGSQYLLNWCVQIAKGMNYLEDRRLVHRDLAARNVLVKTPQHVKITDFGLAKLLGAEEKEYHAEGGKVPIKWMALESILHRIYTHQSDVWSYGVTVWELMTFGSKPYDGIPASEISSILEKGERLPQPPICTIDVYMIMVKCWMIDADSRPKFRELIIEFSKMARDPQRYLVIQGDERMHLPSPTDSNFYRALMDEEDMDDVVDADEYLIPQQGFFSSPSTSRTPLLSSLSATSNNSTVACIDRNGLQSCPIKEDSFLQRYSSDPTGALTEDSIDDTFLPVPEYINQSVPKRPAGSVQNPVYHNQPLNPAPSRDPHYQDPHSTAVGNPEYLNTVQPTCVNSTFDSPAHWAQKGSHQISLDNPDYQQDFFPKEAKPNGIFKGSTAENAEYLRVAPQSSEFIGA
- Assay procedure: Biochemical EGFR kinase inhibition assay (Lance Ultra TR-FRET), triple mutant del19/T790M/C797S
- Cond: IC50 Del19/T790M/C797S (nM), 100 μM ATP
Field: value | Transform: log10 | Quantity: IC50 | Unit: nM

Below, each entry is followed by its recorded log10(IC50) result.
>  <Molecule>
CNC1CCN(c2cc(Nc3ccnc(-c4cnn(S(=O)(=O)C5CC5)c4)n3)ncc2C#Cc2ccn(C)n2)CC1

>  <Reported property>
log10(IC50)

>  <Obs value>
0.26

$$$$
>  <Molecule>
O=S(=O)(C1CC1)n1cc(-c2nccc(Nc3cc(NC[C@H]4CC[C@H](O)CC4)c(C#CC4CC5CCC4O5)cn3)n2)cn1 (stereo partly drawn)

>  <Reported property>
log10(IC50)

>  <Obs value>
0.08

$$$$
>  <Molecule>
CC(C)(O)CC#Cc1cnc(Nc2ccnc(-c3cnn(S(=O)(=O)C4CC4)c3)n2)cc1N1CCC(C)(CO)CC1

>  <Reported property>
log10(IC50)

>  <Obs value>
0.64

$$$$

Q. Would you kindly share the measured log10(IC50) for `CC(C)NC1CCN(c2cc(Nc3ccnc(-c4cnn(S(=O)(=O)C5CC5)c4)n3)ncc2C#Cc2cnn(C)c2)CC1` ?
A. 0.00

Q. Quick one: log10(IC50) of COC1(O)CCN(c2cc(Nc3ccnc(-c4cnn(S(=O)(=O)C5CC5)c4)n3)ncc2C#CC2CCN(C)C2)CC1 (stereo not drawn) ?
A. -0.52

Q. I am curious: what log10(IC50) value has been reported for `CC(C)CCNC1CCN(c2cc(Nc3ccnc(-c4cnn(S(=O)(=O)C5CC5)c4)n3)ncc2C#Cc2cnn(C)c2)CC1` ?
A. 0.75

====

- Measured on: EGFR Del19/C797S (Homo sapiens, UniProt P00533, C797S/DEL746-750)
- Sequence (P00533 with tags, fused parts or gaps DEL746-750/C797S): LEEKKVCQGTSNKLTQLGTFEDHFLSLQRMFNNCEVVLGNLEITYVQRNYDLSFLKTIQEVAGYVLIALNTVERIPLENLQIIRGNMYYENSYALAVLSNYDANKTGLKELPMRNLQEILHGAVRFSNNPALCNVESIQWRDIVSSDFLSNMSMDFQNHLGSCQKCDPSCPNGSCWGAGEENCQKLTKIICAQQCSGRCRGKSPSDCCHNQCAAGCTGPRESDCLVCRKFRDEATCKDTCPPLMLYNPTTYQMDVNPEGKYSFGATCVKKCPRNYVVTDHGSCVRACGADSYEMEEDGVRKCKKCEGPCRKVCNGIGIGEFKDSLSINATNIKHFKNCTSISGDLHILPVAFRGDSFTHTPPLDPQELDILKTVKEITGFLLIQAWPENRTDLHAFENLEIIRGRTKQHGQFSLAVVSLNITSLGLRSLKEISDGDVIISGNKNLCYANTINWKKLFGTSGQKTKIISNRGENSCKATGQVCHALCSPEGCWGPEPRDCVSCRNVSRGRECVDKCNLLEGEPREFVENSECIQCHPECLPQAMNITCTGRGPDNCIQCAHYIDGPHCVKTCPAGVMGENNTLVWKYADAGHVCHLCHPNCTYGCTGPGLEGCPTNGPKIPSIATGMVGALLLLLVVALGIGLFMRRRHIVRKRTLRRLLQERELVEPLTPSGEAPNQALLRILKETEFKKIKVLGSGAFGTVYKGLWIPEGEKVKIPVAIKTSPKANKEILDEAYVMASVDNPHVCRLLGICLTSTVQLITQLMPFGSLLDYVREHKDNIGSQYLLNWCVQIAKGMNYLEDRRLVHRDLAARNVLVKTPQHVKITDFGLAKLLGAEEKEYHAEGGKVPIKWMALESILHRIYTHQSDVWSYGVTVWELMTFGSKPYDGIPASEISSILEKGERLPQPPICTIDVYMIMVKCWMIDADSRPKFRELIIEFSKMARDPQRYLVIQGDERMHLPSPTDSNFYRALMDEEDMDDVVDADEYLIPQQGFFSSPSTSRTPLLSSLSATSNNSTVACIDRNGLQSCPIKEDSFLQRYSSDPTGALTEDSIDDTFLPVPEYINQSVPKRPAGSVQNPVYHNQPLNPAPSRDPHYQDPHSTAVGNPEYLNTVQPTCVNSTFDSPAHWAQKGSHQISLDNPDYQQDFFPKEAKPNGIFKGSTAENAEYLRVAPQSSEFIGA
- Assay procedure: Biochemical EGFR kinase inhibition assay (Lance Ultra TR-FRET), double mutant del19/C797S
- Cond: IC50 Del19/C797S (nM), 100 μM ATP
Reported property: IC50 (nM)
# output: bare number, implied unit nM

>  <Smiles record>
CN1CCN(Cc2ccc(C#Cc3cnc(Nc4ccnc(-c5cnn(S(=O)(=O)C6CC6)c5)n4)cc3N3CCC(C)(O)CC3)cc2)CC1

>  <IC50 (nM)>
0.7

$$$$
>  <Smiles record>
CC1(CO)CCN(c2cc(Nc3ccnc(-c4cnn(S(=O)(=O)C5CC5)c4)n3)ncc2C#CC2CCN(S(C)(=O)=O)CC2)CC1

>  <IC50 (nM)>
2.1

$$$$
>  <Smiles record>
CC1(CO)CCN(c2cc(Nc3ccnc(-c4cnn(S(=O)(=O)C5CC5)c4)n3)ncc2C#CCNC(=O)C(F)(F)F)CC1

>  <IC50 (nM)>
3.6

$$$$

Attention now shifts to the item below.
Q. Fill blank: measured IC50 of the compound `O=S(=O)(C1CC1)n1cc(-c2nccc(Nc3cc(N[C@H]4CC[C@@H](O)CC4)c(C#Cc4cnn(CC(F)(F)F)c4)cn3)n2)cn1` is ____.
A. 7.5
